// STK11 functional score lookup, one value per entry
B1: library; numbered along this chain (parent)
chain: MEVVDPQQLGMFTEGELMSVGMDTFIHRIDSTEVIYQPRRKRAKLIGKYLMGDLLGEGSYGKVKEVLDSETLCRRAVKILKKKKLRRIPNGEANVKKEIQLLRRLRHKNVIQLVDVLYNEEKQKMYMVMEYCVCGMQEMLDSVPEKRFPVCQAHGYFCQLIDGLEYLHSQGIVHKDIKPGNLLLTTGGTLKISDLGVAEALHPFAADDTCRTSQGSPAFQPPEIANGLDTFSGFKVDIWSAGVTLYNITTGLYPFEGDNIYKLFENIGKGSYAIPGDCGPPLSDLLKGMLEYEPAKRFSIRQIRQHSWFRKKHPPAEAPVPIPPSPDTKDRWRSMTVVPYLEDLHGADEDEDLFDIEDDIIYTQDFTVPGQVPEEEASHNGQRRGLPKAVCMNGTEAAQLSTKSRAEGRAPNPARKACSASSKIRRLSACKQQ

# Variants of: B1
# method_description: STK11 functional score (HeLa growth suppression), rescaled enrichment; synonymous median = 1, nonsense median = 0 (normalised score)
# setup_conditions: with HeLa; variant type: missense
Give the value as a plain number.

Examples with their reported STK11 functional score follow.
V173L
0.137
A406M
0.606
L427C
0.695
V63C
1.4
P294E
1.3

Find the recorded STK11 functional score belonging to "P324R" and report it.
1.17

And for "K262R" ?
1.18

Let us now turn to "T363A"
0.828

Can you check "Q137G" next?
0.734

Also "G61L" , if possible.
0.588

Could you do the same for "L386T" , please?
1.6

Proceed to "M18E"
1.56

Record: "C73T"
1.6

Then what about the variant "L353I" ?
1.19

Try this variant too: "Y253V"
1.56

Please give the result for "Q112F" too.
1.11

Input "E357Y"
1.39

Proceed to "N380L"
0.908
